Attribution: paper PMC9120017

assayed_target: mouse TMEM16A mutant Y514A (Mus musculus, UniProt Q8BHY3, Y514A)
Construct: expressed in transfected cells; host or cells: HEK293T
Sequence (Q8BHY3 whole entry Y514A): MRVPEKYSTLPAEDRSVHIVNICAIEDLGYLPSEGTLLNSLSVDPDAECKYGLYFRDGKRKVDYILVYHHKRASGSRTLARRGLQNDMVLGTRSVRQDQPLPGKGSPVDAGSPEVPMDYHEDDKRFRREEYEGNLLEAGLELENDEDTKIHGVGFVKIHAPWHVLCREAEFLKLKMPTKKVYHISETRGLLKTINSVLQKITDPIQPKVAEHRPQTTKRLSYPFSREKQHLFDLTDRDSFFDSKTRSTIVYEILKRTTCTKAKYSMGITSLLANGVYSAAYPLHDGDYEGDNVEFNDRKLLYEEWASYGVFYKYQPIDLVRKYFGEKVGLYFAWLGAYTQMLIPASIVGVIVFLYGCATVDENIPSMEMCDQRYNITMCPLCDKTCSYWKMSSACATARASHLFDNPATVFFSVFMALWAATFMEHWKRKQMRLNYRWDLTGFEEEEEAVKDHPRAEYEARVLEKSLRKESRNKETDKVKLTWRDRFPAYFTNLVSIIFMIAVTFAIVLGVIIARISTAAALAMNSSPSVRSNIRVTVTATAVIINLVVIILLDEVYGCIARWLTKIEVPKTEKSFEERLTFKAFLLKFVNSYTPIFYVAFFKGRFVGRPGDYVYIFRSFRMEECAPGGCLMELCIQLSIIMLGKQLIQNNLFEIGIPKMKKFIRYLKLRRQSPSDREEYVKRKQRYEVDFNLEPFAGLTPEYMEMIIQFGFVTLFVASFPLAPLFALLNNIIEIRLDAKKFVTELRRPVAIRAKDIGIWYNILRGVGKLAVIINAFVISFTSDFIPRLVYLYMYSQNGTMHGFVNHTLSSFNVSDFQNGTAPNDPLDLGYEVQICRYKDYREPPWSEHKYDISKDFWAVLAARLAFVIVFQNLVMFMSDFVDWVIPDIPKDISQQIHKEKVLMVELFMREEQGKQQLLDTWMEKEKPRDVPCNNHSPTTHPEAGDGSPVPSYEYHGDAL
protocol_notes: Inside-out patch recording of 1PBC block, mutant Y514A
Assay type: cell-based
experimental_parameters: 140 mV; 2 µM Ca2+
parameter_measured: IC50 (µM)

[[record]]
compound = "N#Cc1c(C(F)(F)F)cc(O)n2c1nc1ccccc12 [1PBC]"
readout_unit = "µM"
observed_measurement = 11.5


----------
assayed_target: mouse TMEM16A mutant I516A (Mus musculus, UniProt Q8BHY3, I516A)
Construct: expressed in transfected cells; host or cells: HEK293T
Sequence (Q8BHY3 whole entry I516A): as the sequence (Q8BHY3 whole entry Y514A) above, with A514Y, I516A counted along it
protocol_notes: Inside-out patch recording of 1PBC block, mutant I516A
Format: cell-based
experimental_parameters: I516A; V 60 mV
Procedure: HEK293T cells (ATCC CRL-1573) were maintained in Dulbecco’s modified Eagle’s medium (DMEM; Sigma-Aldrich) supplemented with 10 U ml^−1 penicillin, 0.1 mg ml^−1 streptomycin (Sigma-Aldrich), 2 mM L-glutamine (Sigma-Aldrich), and 10% FBS (Sigma-Aldrich) in a humidified atmosphere containing 5% CO2 at 37 °C. […]
pIC50: −log10 of the molar value.
parameter_measured: pIC50

[[record]]
compound = "N#Cc1c(C(F)(F)F)cc(O)n2c1nc1ccccc12 [1PBC]"
assayed_target = "mouse TMEM16A mutant I516A (Mus musculus, UniProt Q8BHY3, I516A)"
parameter_measured = "pIC50"
observed_measurement = 5.40

